Where do these numbers come from? They come from patent US20240382510A1.

Items are presented alongside their recorded fraction unbound.
Measurement Description: in vivo
Assay type: in vitro ADME
Test Conditions: plasma, separate administration, read-out: average plasma protein binding rate, separate administration group (converted)
Measurement Kind: fraction unbound

[
  {
    "Smiles Str": "CC(=O)Oc1ccccc1C(=O)Nc1ncc([N+](=O)[O-])s1",
    "Number": 0.0105
  },
  {
    "Smiles Str": "O=C1C(O)=C([C@H]2CC[C@H](c3ccc(Cl)cc3)CC2)C(=O)c2ccccc21",
    "Number": 0.0016
  }
]
